Assay: Toxicity liver stage against HepG2, at 10uM
Format: cell-based
Set-up: test concentration 10 uM, cell line HepG2-A16-CD81EGFP
Details: human, HepG2-A16-CD81EGFP cells; read-out: INHIBITION
property_measured: cytotoxicity at 10 µM (%)
Give the number; % is assumed, so skip it.

Example entries begin here.
CCc1ccc(C(=O)N2CCCC(c3noc(CC)n3)C2)o1 (configuration not stated) | -3.97
Cc1cccc(CN2C[C@H](OCc3csc(C)n3)[C@H]3COC[C@H]32)n1 | 3.22
CCOC(=O)CCN(Cc1cccnc1)C(=O)c1cc(Cl)c[nH]1 | -1.24

Name the recorded cytotoxicity at 10 µM for CN1CCNC(Cc2ccc(-c3cccs3)cc2)C1=O (configuration not stated) .
-29.3

Name the recorded cytotoxicity at 10 µM for Cc1sc2c(C3CCCN(S(C)(=O)=O)C3)nc(C)n2c1C (configuration not stated) .
-33

Name the recorded cytotoxicity at 10 µM for CCN(C)C1CCCc2nc(C)sc21 (configuration not stated) .
-0.887

* * *

Assay: Toxicity liver stage against HepG2, at 10uM
Format: cell-based
Set-up: test concentration 10 uM, cell line HepG2-A16-CD81EGFP
Settings: human, HepG2-A16-CD81EGFP cells; read-out: INHIBITION
Below, each entry is listed with its recorded cytotoxicity at 10 µM.
Give the number; % is assumed, so skip it.

Cc1noc(CCCC(=O)N2CCNC(=O)C2)n1 | -4.62
O=C(Cc1cccc(Cl)c1)N[C@@H]1CCNC[C@H]1O | 2.28
O=C(O)c1cn(CC2CCCN(c3nc4ccccc4s3)C2)nn1 (stereo unspecified) | -12.2
CC(C)n1ccnc1C1CCN(C(=O)C2COc3ccccc3O2)CC1 (stereo unspecified) | -8.28
Cc1nnc([C@@H]2CCO[C@@H]3CCN(C(=O)Cc4ccsc4)C[C@@H]32)o1 | 9.43
Cc1ccc2c(n1)N(CCN(C)C)CCN(C(=O)c1ccsc1)C2 | -57.3

Name the recorded cytotoxicity at 10 µM for CSCC(C)N(C)C(=O)c1nn(-c2ccc(F)cc2C)cc1O (stereo unspecified) .
0.618

Name the recorded cytotoxicity at 10 µM for `CCNC(=O)CN(CC)C(=O)c1cccc(Nc2cnn(C)c2)c1` .
7.68

* * *

Test: Toxicity liver stage against HepG2, at 10uM
Format: cell-based
Design: test concentration 10 uM, cell line HepG2-A16-CD81EGFP
Settings: human, HepG2-A16-CD81EGFP cells; read-out: INHIBITION
property_measured: cytotoxicity at 10 µM

Example entries begin here.
CCN(CC)C(=O)N1CCN(CCc2ccncc2)CC1 | -38.9%
CN(C)[C@@H]1CCN(C(=O)c2ccccn2)[C@H]1Cc1cnn(C)c1 | -70%
Nc1ccncc1-n1cc(CCO)cn1 | 0.769%
CCN1CCN(S(=O)(=O)c2cc(C)c(Cl)cc2Cl)CC1 | -2.67%
CCCS(=O)(=O)N1CCC(n2nc(-c3cc(C)oc3C)ccc2=O)CC1 | 14.6%

Name the recorded cytotoxicity at 10 µM for `Cc1cc(NS(=O)(=O)c2ccccc2F)ccc1-n1cccc1C(=O)O` .
-5.67%

Name the recorded cytotoxicity at 10 µM for `CCOc1ccc(CN2CCN(CCOC)[C@@H]3CS(=O)(=O)C[C@@H]32)cc1` .
-1.25%

Name the recorded cytotoxicity at 10 µM for Cc1c(C(=O)NC2(C#N)CCSC2)nnn1-c1ccccc1Cl (stereo not drawn) .
-5.34%

Name the recorded cytotoxicity at 10 µM for `Cn1ccnc1CN(CCCO)CC(F)(F)F` .
5.68%

Name the recorded cytotoxicity at 10 µM for `CCc1[nH]c(C2(N)CCCCC2)nc(=O)c1C` .
7.61%

Name the recorded cytotoxicity at 10 µM for `O=C(NCCCO)Nc1cccc(Cl)c1F` .
2.79%

Name the recorded cytotoxicity at 10 µM for `CCSc1cc(C(=O)NCc2ccccc2O)ccn1` .
-3.81%

Name the recorded cytotoxicity at 10 µM for CCc1nc(C2CCCN2C(=O)CCCn2cncn2)no1 (stereo not drawn) .
-11.4%

Name the recorded cytotoxicity at 10 µM for CC(=O)N1CCCC1c1ccc(CN2CCOCC2)cn1 (stereo not drawn) .
5.83%

Name the recorded cytotoxicity at 10 µM for `Cc1cccc(CN2CCN(C(=O)c3ccc(C)[nH]c3=O)CC2)c1` .
12.8%

Name the recorded cytotoxicity at 10 µM for CCCc1n[nH]c(C2CN(CCCS(C)(=O)=O)CCO2)n1 (stereo not drawn) .
-2.38%

Name the recorded cytotoxicity at 10 µM for `Cc1ccc(S(=O)(=O)NC(=O)CCOCc2ccccc2)s1` .
-11.2%

Name the recorded cytotoxicity at 10 µM for COCCN1CCN(CC(C)(O)c2cccc(C(F)(F)F)c2)CC1 (stereo not drawn) .
-24.2%

Name the recorded cytotoxicity at 10 µM for CNC(=O)c1cn[nH]c1C1CCCN1c1nc(C)cc(C)n1 (stereo not drawn) .
2.81%

Name the recorded cytotoxicity at 10 µM for `Cc1cc(NCCO)nc(N2CCCC2)c1C#N` .
-7.02%

Name the recorded cytotoxicity at 10 µM for `CCc1nc(C)c([C@H]2CN(C)C[C@@H]2C(=O)NCc2ccccn2)[nH]1` .
2.77%

Name the recorded cytotoxicity at 10 µM for `O=C(c1cc(COc2ccc3c(c2)OCO3)[nH]n1)N1CCOCC1` .
-5.21%
